# PBM binding z-score per entry
Tested on: VDR:RXRa (NR concentration 270 nM, RXRa partner concentration 90 nM)
experimentSummary: PBM binding z-score (relative to random genomic background probes); higher = stronger binding; sequences stand for … in GC…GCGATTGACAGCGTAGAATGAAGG
attributeMeasured: PBM binding z-score

[[record]]
seqstring = "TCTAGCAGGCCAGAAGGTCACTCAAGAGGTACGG"
attributemeasured = "PBM binding z-score"
result = 2.16

[[record]]
seqstring = "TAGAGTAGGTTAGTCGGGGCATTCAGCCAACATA"
attributemeasured = "PBM binding z-score"
result = 2.52

[[record]]
seqstring = "TCTCGGAGGACACGCAAGGTCAGAGCTCGACATC"
attributemeasured = "PBM binding z-score"
result = 2.45

[[record]]
seqstring = "GCGACTGGTGCAAAGCAGGTTACCATAAGGTTGG"
attributemeasured = "PBM binding z-score"
result = -0.134

[[record]]
seqstring = "AGAATGAGGTTACCAAAGATCGGGGAAACGCTTG"
attributemeasured = "PBM binding z-score"
result = 1.3

[[record]]
seqstring = "CGAACGAGGGCAGGAGTTGATAGCAAATGCCGAT"
attributemeasured = "PBM binding z-score"
result = -0.167

[[record]]
seqstring = "CAAACTAGGTCACGAAAGGACAAAGTCGAATGAC"
attributemeasured = "PBM binding z-score"
result = 4.23

[[record]]
seqstring = "CAAACTAAGTCACAGAGGTCAAAGTCCGTGCGTA"
attributemeasured = "PBM binding z-score"
result = 6.65

[[record]]
seqstring = "TCTTGTAGATCAAAGGTTGAGAAAGCCGAAGCCT"
attributemeasured = "PBM binding z-score"
result = 0.408

[[record]]
seqstring = "TCGAGTAGGTTAGGAGCATTCAGAATGGCGTCGA"
attributemeasured = "PBM binding z-score"
result = -0.474

[[record]]
seqstring = "GGAACGAGGGCATTCGACTTGATAGCATGGCGAT"
attributemeasured = "PBM binding z-score"
result = 1.35

[[record]]
seqstring = "CCTAGCAGGCCAGGGTAACTCAAGCATTTCGCTT"
attributemeasured = "PBM binding z-score"
result = -0.743

